Structures can show the parent of a compound that is named as a salt.
Record form. Attribute: melting point. Fill in for each entry.
Field: numeric (°C). Do not append units.

Return melting point (reported value) for this compound: O=C1C[C@H](c2ccccc2)c2cc(C(=O)O)ccc2O1 [Example 3]
224.9

Return melting point (reported value) for this compound: CC(C)N(CC[C@H](c1ccccc1)c1cc(C(=O)O)ccc1O)C(C)C
102.3

Return melting point (reported value) for this compound: O=C1CC(c2ccccc2)c2cc(C(=O)O)ccc2O1 (racemic)
246

Return melting point (reported value) for this compound: O=C1C[C@H](c2ccccc2)c2cc(C(=O)O)ccc2O1 (as salt: salt) [Example 3]
197.5

Return melting point (reported value) for this compound: COC(=O)c1ccc(O)c([C@H](CCN(C(C)C)C(C)C)c2ccccc2)c1
143.7

Return melting point (reported value) for this compound: CC(C)OC(=O)c1ccc2c(c1)C(c1ccccc1)CC(=O)O2 (racemic)
85.9

----------
# protocolDescription: Solubilities at ambient temperature
# Type: physicochemical
# runConditions: organic solvent or mixture, in methanol
quantityName: solubility

Return solubility (reported value) for this compound: CC(C)N(CC[C@H](c1ccccc1)c1cc(CO)ccc1O)C(C)C
> 50 mg/mL

----------
# protocolDescription: Solubilities at ambient temperature
# Format: physicochemical
# runConditions: organic solvent or mixture, in dichloromethane
quantityName: solubility

Return solubility (reported value) for this compound: CC(C)N(CC[C@H](c1ccccc1)c1cc(CO)ccc1O)C(C)C
< 200 µg/mL
